Entries and their Concentration up to which no hemolysis was caused values follow.
# System: sheep erythrocytes
# experiment: Hemolysis test
# Assay type: cell-based
# measurementContext: sheep erythrocytes, 1.5 h, 37 °C
readoutType: Concentration up to which no hemolysis was caused

{"compound": "CCCCCCCCCCCC(=O)N(CCCN(CCC[N+](C)(C)C)C(=O)CCCCCCCCCCC)CCC[N+](C)(C)C [2xC12BrG3]", "measured": "≤ 20 µM"}
{"compound": "CCCCCCCCCCCCCCCC(=O)N(CCCN(CCC[N+](C)(C)C)C(=O)CCCCCCCCCCCCCCC)CCC[N+](C)(C)C [2xC16LaG3]", "measured": "≤ 40 µM"}
{"compound": "CCCCCCCCCCCCCCCC(=O)N(CCCN(CCC[N+](C)(C)C)C(=O)CCCCCCCCCCCCCCC)CCC[N+](C)(C)C [2xC16BrG3]", "measured": "≤ 80 µM"}
{"compound": "CCCCCCCCCCCCCCCC(=O)N(CCCN(CCC[N+](C)(C)C)C(=O)CCCCCCCCCCCCCCC)CCC[N+](C)(C)C [2xC16MeCO3G3]", "measured": "≤ 80 µM"}

* * *

# Test system: Salmonella Typhimurium TA100
# measurementContext: TA100, ½ MIC
# Method: The mutagenic potential of the tested gemini QAS was determined using the Ames test[83] using Salmonella Typhimurium TA98 and Salmonella Typhimurium TA100 with defects in histidine biosynthesis. The culture of S. Typhimurium TA98 and S. Typhimurium TA100 was incubated with shaking at 37 °C for 18 h, centrifuged (3000 rpm, 5 min) and OD = 1.5 was determined, at a wavelength of λ = 590 nm. The agar was dissolved and cooled to 42 °C. […] The media were incubated for 48 h at 37 °C. […]
readoutType: Mutagenicity ratio (MR)

{"compound": "CCCCCCCCCCCC(=O)N(CCCN(CCC[N+](C)(C)C)C(=O)CCCCCCCCCCC)CCC[N+](C)(C)C [2xC12BrG3]", "measured": 1.23}
{"compound": "CCCCCCCCCCCCCC(=O)N(CCCN(CCC[N+](C)(C)C)C(=O)CCCCCCCCCCCCC)CCC[N+](C)(C)C", "measured": 0.98}
{"compound": "CCCCCCCCCCCCCCCC(=O)N(CCCN(CCC[N+](C)(C)C)C(=O)CCCCCCCCCCCCCCC)CCC[N+](C)(C)C [2xC16MeCO3G3]", "measured": 1.76}
{"compound": "CCCCCCCCCCCC(=O)N(CCCN(CCC[N+](C)(C)C)C(=O)CCCCCCCCCCC)CCC[N+](C)(C)C [2xC12MeCO3G3]", "measured": 1.57}
{"compound": "CCCCCCCCCCCCCCCC(=O)N(CCCN(CCC[N+](C)(C)C)C(=O)CCCCCCCCCCCCCCC)CCC[N+](C)(C)C [2xC16BrG3]", "measured": 1.50}
{"compound": "CCCCCCCCCCCCCCCC(=O)N(CCCN(CCC[N+](C)(C)C)C(=O)CCCCCCCCCCCCCCC)CCC[N+](C)(C)C [2xC16LaG3]", "measured": 1.06}

* * *

Entries and their CMC values follow.
# experiment: Critical micelle concentration (CMC), conductometric method
# Type: physicochemical
# measurementContext: double distilled water, 25 °C

{"compound": "CCCCCCCCCCCC(=O)N(CCCN(CCC[N+](C)(C)C)C(=O)CCCCCCCCCCC)CCC[N+](C)(C)C [2xC12MeCO3G3]", "CMC": "1.8*10^–4 mol/dm^3"}
{"compound": "CCCCCCCCCCCCCCCC(=O)N(CCCN(CCC[N+](C)(C)C)C(=O)CCCCCCCCCCCCCCC)CCC[N+](C)(C)C [2xC16LaG3]", "CMC": "3.7*10^–7 mol/dm^3"}
{"compound": "CCCCCCCCCCCCCC(=O)N(CCCN(CCC[N+](C)(C)C)C(=O)CCCCCCCCCCCCC)CCC[N+](C)(C)C", "CMC": "5.4*10^–6 mol/dm^3"}
{"compound": "CCCCCCCCCCCC(=O)N(CCCN(CCC[N+](C)(C)C)C(=O)CCCCCCCCCCC)CCC[N+](C)(C)C [2xC12BrG3]", "CMC": "6.4*10^–5 mol/dm^3"}
{"compound": "CCCCCCCCCCCCCCCC(=O)N(CCCN(CCC[N+](C)(C)C)C(=O)CCCCCCCCCCCCCCC)CCC[N+](C)(C)C [2xC16MeCO3G3]", "CMC": "1.6*10^–6 mol/dm^3"}
{"compound": "CCCCCCCCCCCCCCCC(=O)N(CCCN(CCC[N+](C)(C)C)C(=O)CCCCCCCCCCCCCCC)CCC[N+](C)(C)C [2xC16BrG3]", "CMC": "4.6*10^–7 mol/dm^3"}
